// data source = patent US20170088602A1

The reader will find reported ARE-luciferase IC50 values listed item by item below.
- MEASUREMENT TARGET: T1, human Activin A (R&D Systems) (human, UniProt P08476 311-426)
- T1 sequence (looked up): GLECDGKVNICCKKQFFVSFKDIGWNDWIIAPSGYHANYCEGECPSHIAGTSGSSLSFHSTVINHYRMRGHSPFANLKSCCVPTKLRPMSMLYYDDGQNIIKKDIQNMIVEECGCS
- ASSAY TEXT: cell-based or functional assay
Respond numerically; units are nM and should not be typed.

Record excerpt, results attached:
BINDER	MEASURE NAME	OBS VALUE
2525_B01 (designed binder) MGVSDVPRDLEVVAATPTSLLISWTLPNFGLINYYRITYGETGGNSPVQEFTVPGRGVTATISGLKPGVDYTITVYAVTITKSTIIIYKPISINYRTEIDKPSQHHHHHH	ARE-luciferase IC50	73
2524_D09 (designed binder) MGVSDVPRDLEVVAATPTSLLISWYLPYPAHMNYYRITYGETGGNSPVQEFTVPGRGLTATISGLKPGVDYTITVYAVTLTKSQILHHRPISINYRTEIDKPSQHHHHHH	ARE-luciferase IC50	84
2987_G04 (designed binder) MGVSDVPRDLEVVAATPTSLLISWSLPYPGHLNYYRITYGETGGNSPVQEFTVPGRGVTATISGLKPGVDYTITVYAVTLTKSKVIHYMPISINYRTEIDKPSQHHHHHH	ARE-luciferase IC50	171

Qu. Which ARE-luciferase IC50 value belongs to ATI-1340 [N-ethylmaleimide] (designed binder, N-ethylmaleimide on the Cys of the EGSGC tail, cysteine mutant of 2987_H07) MGVSDVPRDLEVVAATPTSLLISWTLPHAGRAHYYRITYGETGGNSPVQEFTVPGRGVTATISGLKPGVDYTITVYAVTVTTTKVIHYKPISINYRTEGSGCHHHHHH ?
Ans. 324
